Sourced from paper PMC9911399

Molecular target: T1, RBFOX1 RRM (Homo sapiens, UniProt Q9NWB1 109-208)
T1 sequence: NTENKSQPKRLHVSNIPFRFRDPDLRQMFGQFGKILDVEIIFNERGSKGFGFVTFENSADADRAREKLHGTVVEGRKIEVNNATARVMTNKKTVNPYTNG
Experiment: EMSA; HiTS-Eq, 1 nM pool, 10 min; buffer printed only for the single-RNA assays: 10 mM Tris pH 7.5, 150 mM NaCl, 3.4 mM EDTA, 0.001% NP-40, 30 C
Conditions: tags: His6 N-terminal (pET28a); label: 5' 32P
Whole data set: some 16,000 sequences, median “ka relative to ugcaugu” near 0.0091, cut for the highest 2% near 0.032. What follows is part of a selection rich in the highest values, with near analogues and random picks from the rest.
Kindly state binding signal for each of the entries shown.

Lookup result for AAAGAGU (DNA:RNA) RNA: GGGAGACCGGAAUUCAGAUUGUCCAAAGAGUUUAAAUCCCGUCGUAGCCACCA DNA 1: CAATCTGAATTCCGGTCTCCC DNA 2: TGGTGGCTACGACGGGATT ; measured binding signal: 0.00527 KA relative to UGCAUGU

Form field binding signal, entry AUGCACG (DNA:RNA) RNA: GGGAGACCGGAAUUCAGAUUGUCCAUGCACGUUAAAUCCCGUCGUAGCCACCA DNA 1: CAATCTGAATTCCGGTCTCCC DNA 2: TGGTGGCTACGACGGGATT : 0.361 KA relative to UGCAUGU
